A set of compounds tested on UniProt:P06186, with measured IC50:
Numbers only, in nM.

Worked examples follow.
O=S(=O)(c1cc(Cl)cc(Cl)c1)N1CCCC(c2ccc(Cl)c(C(F)(F)F)c2)=N1 [Compound 80] has a reported IC50 of 0.79

O=[N+]([O-])c1ccc(S(=O)(=O)N2CCCC(c3ccc(Cl)c(Cl)c3)=N2)cc1 [Compound 38] has a reported IC50 of 5.29

O=C(c1ccc(Cl)c(Cl)c1)N1CCCC(c2ccc(Cl)cc2)=N1 [Compound 200] has a reported IC50 of 5000

O=S(=O)(c1ccc(Cl)c(Cl)c1)N1CCCC(c2ccccc2)=N1 [Compound 60] has a reported IC50 of 191

O=C(c1ccccc1)N1CCCC(c2ccc(Cl)cc2)=N1 [Compound 191] has a reported IC50 of 100000

O=S(=O)(c1cc(C(F)(F)F)cc(C(F)(F)F)c1)N1CCCC(c2ccc(Cl)cc2)=N1 [Compound 33] has a reported IC50 of 9

O=S(=O)(c1ccc(Br)cc1)N1CCCC(c2ccc(Br)cc2)=N1 [Compound 100] has a reported IC50 of 23

Further cases:
O=S(=O)(c1ccc(C(F)(F)F)cc1)N1CCCC(c2ccc3ccccc3c2)=N1 [Compound 129] has a reported IC50 of 4.94

* * *

Exercise: state measured Osteoblast Cell Proliferation, 3H-thymidine incorporation vs control (100%) for each of the compounds provided.
System: mouse (MC3T3-E1) and human (TE-85) osteoblast-line cells
Format: cell-based
Assay context: 10^-10
Give bare numbers, in %.

Worked examples follow.
"COc1ccc(C2=NN(C(=O)c3ccc(Br)cc3)CCC2)cc1" has a reported Osteoblast Cell Proliferation, 3H-thymidine incorporation vs control (100%) of 158

"O=S(=O)(c1cc(Cl)ccc1Cl)N1CCCC(c2ccc(Cl)c(Cl)c2)=N1" has a reported Osteoblast Cell Proliferation, 3H-thymidine incorporation vs control (100%) of 40

"O=S(=O)(/C=C/c1cccc(Cl)c1)N1CCCC(c2ccc(Cl)c(Cl)c2)=N1" has a reported Osteoblast Cell Proliferation, 3H-thymidine incorporation vs control (100%) of 113

"CCCCc1ccc(C2=NN(S(=O)(=O)c3ccc(I)cc3)CCC2)cc1" has a reported Osteoblast Cell Proliferation, 3H-thymidine incorporation vs control (100%) of 98

Cc1ccc(S(=O)(=O)N2N=C(c3cccc(Br)c3)CC3C4C5C=CC(C5)C4CC32)cc1 (stereo not drawn) has a reported Osteoblast Cell Proliferation, 3H-thymidine incorporation vs control (100%) of 112

We now examine a further compound.
"O=C(c1ccc([N+](=O)[O-])cc1)N1CCCC(c2ccc(F)cc2)=N1" has a reported Osteoblast Cell Proliferation, 3H-thymidine incorporation vs control (100%) of 106

* * *

Measured on: progestin receptor from rabbit uterus (Oryctolagus cuniculus, UniProt P06186)
Sequence (P06186 whole entry): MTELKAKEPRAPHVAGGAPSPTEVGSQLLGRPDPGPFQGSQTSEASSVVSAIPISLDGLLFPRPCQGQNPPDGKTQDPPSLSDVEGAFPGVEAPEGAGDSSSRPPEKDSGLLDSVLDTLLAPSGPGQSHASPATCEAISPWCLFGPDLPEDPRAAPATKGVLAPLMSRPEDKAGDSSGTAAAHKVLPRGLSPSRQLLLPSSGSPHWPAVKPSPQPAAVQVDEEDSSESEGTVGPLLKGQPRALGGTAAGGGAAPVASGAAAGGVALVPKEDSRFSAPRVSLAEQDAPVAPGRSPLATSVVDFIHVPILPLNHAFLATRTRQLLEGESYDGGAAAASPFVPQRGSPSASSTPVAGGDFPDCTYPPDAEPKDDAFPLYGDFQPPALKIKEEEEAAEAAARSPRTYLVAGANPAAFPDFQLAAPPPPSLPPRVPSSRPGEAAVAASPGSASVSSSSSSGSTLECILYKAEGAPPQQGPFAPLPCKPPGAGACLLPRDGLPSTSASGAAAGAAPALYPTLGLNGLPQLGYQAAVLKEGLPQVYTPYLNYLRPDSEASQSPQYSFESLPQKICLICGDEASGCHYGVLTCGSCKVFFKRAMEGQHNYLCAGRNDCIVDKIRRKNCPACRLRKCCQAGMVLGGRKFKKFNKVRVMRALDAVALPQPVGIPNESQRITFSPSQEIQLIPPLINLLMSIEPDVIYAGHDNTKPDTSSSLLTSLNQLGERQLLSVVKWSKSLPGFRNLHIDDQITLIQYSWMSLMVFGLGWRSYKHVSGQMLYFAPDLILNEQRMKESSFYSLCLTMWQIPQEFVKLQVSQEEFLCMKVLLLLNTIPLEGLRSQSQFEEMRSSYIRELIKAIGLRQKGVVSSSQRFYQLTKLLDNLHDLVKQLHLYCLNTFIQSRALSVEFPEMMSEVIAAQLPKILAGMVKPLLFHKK
Exercise: state measured log10 IC50 for each of the molecules provided.
Could you please treat all values as log10 of IC50 in nM?

Could you tell me log10 IC50 for each of these molecules? They are listed below.
1. CCOP(=O)(c1ccccc1)N1CCCC(c2ccc(Cl)c(Cl)c2)=N1 (stereo not drawn)
2. O=S(=O)(c1c(F)c(F)c(F)c(F)c1F)N1CCCC(c2ccc(F)cc2)=N1
3. O=S(=O)(c1ccc(I)cc1)N1CCCC(c2ccc(Cl)c(C(F)(F)F)c2)=N1
4. O=S(=O)(c1ccc2ccccc2c1)N1CCCC(c2ccc(-c3ccccc3)cc2)=N1
5. O=S(=O)(c1ccc(I)cc1)N1CCCC(c2ccc3c(c2)CCCC3)=N1
6. CC1CC(c2ccccc2)=NN(S(=O)(=O)c2cccc(C(F)(F)F)c2)C1 (stereo not drawn)
7. COc1ccc(C2=NN(C(=O)c3ccc(Cl)c(Cl)c3)CCC2)cc1

Resp:
1. 2.31
2. 2.24
3. 0.12
4. 3.00
5. 1.44
6. 2.60
7. 5.00

Could you tell me log10 IC50 for each of these molecules? They are listed below.
1. O=[N+]([O-])c1ccc(S(=O)(=O)N2CCCC(c3ccc(F)cc3)=N2)c([N+](=O)[O-])c1
2. O=C(c1ccc(Cl)c(Cl)c1)N1CCCC(c2ccccc2)=N1
3. O=S(=O)(c1ccc(F)cc1F)N1CCCC(c2ccc(Cl)cc2)=N1

Resp:
[3.48, 3.55, 1.65]

Could you tell me log10 IC50 for each of these molecules? They are listed below.
1. O=S(=O)(c1cc(Cl)ccc1Cl)N1CCCC(c2ccc(Cl)c(C(F)(F)F)c2)=N1
2. O=S(=O)(c1cc(Cl)ccc1Cl)N1CCCC(c2cccc(Cl)c2)=N1
3. O=S(=O)(c1ccc2ccccc2c1)N1CCCC(c2ccc(F)cc2)=N1
4. O=S(=O)(c1cc(Cl)ccc1Cl)N1CCCC(c2ccccc2)=N1
5. CN(C)c1ccc(C2=NN(S(=O)(=O)c3ccc(I)cc3)CCC2)cc1
6. O=S(=O)(c1cc(Cl)cc(Cl)c1)N1CCCC(c2ccc(Cl)c(Cl)c2)=N1

Resp:
-0.05
0.38
1.69
1.62
2.07
-0.07

Could you tell me log10 IC50 for each of these molecules? They are listed below.
1. O=S(=O)(c1ccccc1)N1CCCC(c2ccc(Cl)cc2)=N1
2. O=[N+]([O-])c1ccccc1S(=O)(=O)N1CCCC(c2ccc(F)cc2)=N1

Resp:
1: 1.11; 2: 2.49

* * *

A set of molecules tested on UniProt:P06186, with measured pIC50:
Numbers only, as −log10 of the molar value.

Worked examples follow.
CC(C)(C)c1ccc(C(=O)N2CCCC(c3ccccc3)=N2)cc1 [Compound 197] has a reported pIC50 of 4.00

CCOP(=O)(c1ccccc1)N1CCCC(c2ccc(Cl)c(C(F)(F)F)c2)=N1 (stereo not drawn) [Compound 262] has a reported pIC50 of 6.02

Nc1ccc(S(=O)(=O)N2CCCC(c3ccc(Cl)cc3)=N2)cc1 [Compound 153] has a reported pIC50 of 6.20

CCCCc1ccc(C2=NN(S(=O)(=O)c3ccc(CCCC)cc3)CCC2)cc1 [Compound 75] has a reported pIC50 of 5.00

O=[N+]([O-])c1ccccc1S(=O)(=O)N1CCCC(c2ccc(Cl)cc2)=N1 [Compound 27] has a reported pIC50 of 7.19

Could you tell me pIC50 for each of these molecules? They are listed below.
1. Cc1ccc(S(=O)(=O)N2CC(C)CC(c3ccccc3)=N2)cc1 (stereo not drawn) [Compound 143]
2. CC1CC(c2ccccc2)=NN(S(=O)(=O)c2ccc(Br)cc2)C1 (stereo not drawn) [Compound 142]
3. O=S(=O)(c1ccc(I)cc1)N1CCCC(c2cc(Br)c(Br)s2)=N1 [Compound 278]
4. COc1ccc(C2=NN(S(=O)(=O)c3ccc4ccccc4c3)CCC2)cc1 [Compound 65]

Resp:
1: 5.86; 2: 5.79; 3: 9.00; 4: 7.24

* * *

Measured on: UniProt:P06186
Exercise: state measured pIC50 for each of the compounds provided.
Numbers only, as −log10 of the molar value.

"O=S(=O)(c1ccc(F)cc1F)N1CCCC(c2ccccc2)=N1" has a reported pIC50 of 6.34

Cc1ccc(C(=O)N2CCCC(c3ccc(Cl)cc3)=N2)cc1 [Compound 146] has a reported pIC50 of 6.00

Could you tell me pIC50 for each of these compounds? They are listed below.
1. COc1ccc(C2=NN(C(=O)c3ccc(Br)cc3)CCC2)cc1
2. O=S(=O)(c1ccc(Br)cc1)N1CCCC(c2ccc(Cl)c(C(F)(F)F)c2)=N1
3. CN1C(=O)CSc2cc(C3=NN(S(=O)(=O)c4ccc(I)cc4)CCC3)ccc21

Resp:
1: 4.00; 2: 8.68; 3: 6.47

* * *

Exercise: state measured Osteoblast Cell Proliferation, 3H-thymidine incorporation vs control (100%) for each of the molecules provided.
Tested on: mouse (MC3T3-E1) and human (TE-85) osteoblast-line cells
Assay type: cell-based
Assay context: 10^-10
One number for each entry, in %.

Could you tell me Osteoblast Cell Proliferation, 3H-thymidine incorporation vs control (100%) for each of these molecules? They are listed below.
1. O=C(c1ccc(Cl)cc1)N1CCCC(c2ccc(Cl)cc2)=N1
2. O=S(=O)(c1ccc(Cl)cc1)N1CCCC(c2ccc(Cl)cc2)=N1
3. O=S(=O)(/C=C/c1ccc2ccccc2c1)N1CCCC(c2ccc(Cl)c(Cl)c2)=N1

Resp:
1: 208; 2: 121; 3: 129

Could you tell me Osteoblast Cell Proliferation, 3H-thymidine incorporation vs control (100%) for each of these molecules? They are listed below.
1. O=C(c1ccccc1)N1CCCC(c2ccccc2)=N1
2. COP(=O)(c1ccccc1)N1CCCC(c2ccc(Br)cc2)=N1 (stereo not shown)
3. O=S(=O)(c1ccccc1)N1CCCC(c2ccc(-c3ccccc3)cc2)=N1
4. COc1ccc(C2=NN(S(=O)(=O)c3ccc(C)cc3)CCC2)cc1

Resp:
[104, 90, 101, 118]

* * *

Exercise: state measured pIC50 for each of the molecules provided.
Measured on: progestin receptor from rabbit uterus (Oryctolagus cuniculus)
Give bare numbers, as −log10 of the molar value.

Form: item "O=S(=O)(c1ccc(I)cc1)N1CCCC(c2ccccc2)=N1" ; test system progestin receptor from rabbit uterus (Oryctolagus cuniculus); pIC50: 6.50

Form: item "O=S(=O)(c1cc(Cl)c(Cl)cc1Cl)N1CCCC(c2ccc(Cl)c(Cl)c2)=N1" ; test system progestin receptor from rabbit uterus (Oryctolagus cuniculus); pIC50: 8.13

Form: item "O=S(=O)(c1ccc2ccccc2c1)N1CCCC(c2ccc3ccccc3c2)=N1" ; test system progestin receptor from rabbit uterus (Oryctolagus cuniculus); pIC50: 8.12

Could you tell me pIC50 for each of these molecules? They are listed below.
1. O=S(=O)(c1cccc2ccccc12)N1CCCC(c2ccccc2)=N1
2. Cc1ccc(S(=O)(=O)N2CCCC(c3cccc(Cl)c3)=N2)cc1

Resp:
1: 7.07; 2: 7.62

Form: item "CCCCc1ccc(S(=O)(=O)N2CCCC(c3ccccc3)=N2)cc1" ; test system progestin receptor from rabbit uterus (Oryctolagus cuniculus); pIC50: 7.66
